# Tested on: HCT116;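 further: Luminescence-based viability readout, five doses per compound, normalized against on-plate DMSO and empty-well controls, followed by dose-response curve fitting for every drug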
# protocolDescription: efficacy (fitted maximal change in viability relative to DMSO control); higher = less cytotoxic (negative = loss of viability)
# conditionsUsed: 48 h
Lab note: anything with efficacy at or over -50% counts as true; the rest go in false.

Below are worked cases with known answers.
{"columns": ["compound", "classLabel"],
 "data": [
  ["CN(NC(=O)CC(=O)NN(C)C(=S)c1ccccc1)C(=S)c1ccccc1 [Elesclomol (STA-4783)]", "true"],
  ["COc1cc(-c2nn(C3CCC(N4CCN(C(C)=O)CC4)CC3)c3ncnc(N)c23)ccc1NC(=O)c1cc2ccccc2n1C (stereo not given)", "false"],
  ["C[C@@H]1C(=O)OC2[C@H](O)[C@]34[C@H]5C[C@@H](C(C)(C)C)[C@]36[C@@H](OC(=O)[C@@H]6O)O[C@@]4(C(=O)O5)[C@]21O (stereo not given in full) [Ginkgolide B]", "true"],
  ["Cc1ccc([S+](=O)([O-])Nc2cc(Cl)ccc2C(=O)Nc2nc(-c3ccccc3)cs2)cc1", "false"],
  ["COc1ccc(N2C(=O)N(c3c(C)cccc3Cl)Cc3cnc(Nc4ccc(C5CCN(C)CC5)cc4OC)nc32)nc1", "false"],
  ["O=C1CC(c2c[nH]c3ccc(F)cc23)C(=O)N1 (stereo not given)", "true"],
  ["Cc1cccc(-c2[nH]c(C(C)(C)C)nc2-c2ccc3c(c2)OCO3)n1", "false"],
  ["CC1=C(CC(=O)O)c2cc(F)ccc2/C1=C\\c1ccc([S+](C)[O-])cc1 (stereo not given)", "true"]
]}

Prompt line: Given the entry O=C(O)c1cc(/N=N/c2ccc(S(=O)(=O)Nc3ccccn3)cc2)ccc1O , answer whether its efficacy meets or surpasses -50%.
Response line: true

Prompt line: For this compound, is measured efficacy -50% or higher? COC1CC(C(=O)c2ccc3c(N)ncc(-c4ccc(-c5cnn(C)c5)cc4)c3n2)C1 (stereo not given)
Response line: true

Prompt line: Determine whether this compound has efficacy no lower than -50%: Nc1ncnc2c1ncn2[C@@H]1O[C@H](CO)[C@@H](O)[C@@H]1O
Response line: true

Prompt line: Check if efficacy >= -50% (inclusive). Item: C=C1C[C@@]2(O)O[C@@]3(C[C@H]2C(C)C)[C@@H](C)CC[C@@H]13
Response line: true

Prompt line: Could you tell me if the measured efficacy of C[C@]12CC[C@H]3[C@@H](C\C=C/4C[C@@H](O)CC[C@]34C)[C@@H]1CCC2=O [Dehydroepiandrosterone] reaches -50% or more?
Response line: true
